- Read-out: Tumor necrosis factor receptor 1 (TNFRSF1A), TNFRSF1A (gene 7132)
- method_notes: LTEA_HepaRG_TNFRSF1A: Life Technologies and Expression Analysis (LTEA) Assay for Tumor necrosis factor receptor 1 (TNFRSF1A) using HepaRG (AID 2283535)
- experimental_context: mRNA level, 48 h; actives raise or lower the signal
Active and inactive are the calls of the source. How the source made its calls: active means hit-call score of the fitted dose curve at least 0.9, where 1 is the maximum; inactive means score below 0.9.
Use one of these outcomes when replying: active, inactive

Returns: the outcome recorded for CCNc1ccccc1 in this assay.
inactive

Returns: the outcome recorded for Cc1ccc(O)cc1 in this assay.
inactive

Returns: the outcome recorded for CN(C)c1ccc(Cc2ccc(N(C)C)cc2)cc1 in this assay.
inactive

Returns: the outcome recorded for C1N2CN3CN1CN(C2)C3 in this assay.
inactive

Returns: the outcome recorded for O=C1CCC(N2C(=O)c3ccccc3C2=O)C(=O)N1 (stereo not drawn) in this assay.
inactive

Returns: the outcome recorded for O=C1CCCCCN1 in this assay.
inactive

Returns: the outcome recorded for CCOC(=O)CC(CC(=O)OCC)(OC(C)=O)C(=O)OCC in this assay.
inactive

Returns: the outcome recorded for O=C(O)CC(O)C(=O)O (stereo not drawn) in this assay.
inactive

Returns: the outcome recorded for COc1ccc2sc(C(=O)Nc3nnn[nH]3)c(OC(C)C)c2c1 in this assay.
active

Returns: the outcome recorded for CC1(C)C(=O)N(Br)C(=O)N1Br in this assay.
inactive

Returns: the outcome recorded for O=c1[nH]c2ccc(S(=O)CCN3CCC(Cc4ccc(F)cc4)CC3)cc2o1 (stereo not drawn) in this assay.
inactive

Returns: the outcome recorded for CCN(C(=O)c1cc(C)cc(OC[C@H](C)Nc2ccncc2)c1)C(C)C in this assay.
active

Returns: the outcome recorded for COCCOc1cc2cc(C(=O)NC3CCN(C(C)C)CC3)n(CC(=O)Nc3ccc(Cl)cn3)c2cn1 in this assay.
inactive
